// data source = ChEMBL document CHEMBL3399999

- System: Trypanosoma brucei rhodesiense
- assay.method.text: Antiprotozoal activity against bloodstream forms of Trypanosoma brucei rhodesiense STIB 900 after 70 hrs by Alamar blue assay
- Assay type: functional, organism-based
- condition.info: STIB 900, 70 h
experimental.readout: IC50 (µM)

Reference set (6 entries):
Value of IC50 reported for the molecule C=C1C(=O)OC2/C=C(/C)[C@@H](O)C/C=C(\C)C[C@H](OC(=O)/C(C)=C/C)[C@@H]12 (single isomer, unassigned) is 3.48

Value of IC50 reported for the molecule "C=C1C(=O)O[C@@]23C=C(C)[C@@H](O)C[C@@H]2[C@@H](C)C[C@H](OC(=O)/C(C)=C\C)[C@@H]13" is 0.46

Value of IC50 reported for the molecule "C=C1C(=O)O[C@]23C=C(C)[C@@H](O)C[C@@H]2[C@H](C)C[C@H](OC(=O)/C(C)=C\C)[C@@H]13" is 1.44

Value of IC50 reported for the molecule "C=C(C(=O)O)[C@H]1[C@@H]2C=C(C)[C@@H](O)C[C@@H]2[C@](C)(O)C[C@@H]1OC(=O)/C(C)=C\C" is 14.8

Value of IC50 reported for the molecule "C=C(C(=O)O)[C@H]1[C@@H]2C=C(C)C(=O)C[C@@H]2[C@@H](C)C[C@@H]1OC(=O)/C(C)=C\C" is 31.1

Value of IC50 reported for the molecule C=C1C(=O)O[C@@H]2/C=C(/C)[C@@H](O)C/C=C(\C)C[C@H](OC(=O)/C(C)=C\C)[C@@H]12 [NOBILIN] is 3.19

I: C=C(C)C(=O)O[C@H]1C/C(C)=C/C[C@H](O)/C(C)=C\C2OC(=O)C(=C)[C@@H]21 (single isomer, unassigned)
II: C=C(C(=O)O)[C@H]1[C@@H]2C=C(C)[C@@H](O)C[C@H]2[C@](C)(O)C[C@@H]1OC(=O)/C(C)=C\C
Lab note: check whether I or II shows the higher recorded IC50. Please respond with the label that marks your chosen entry.
II
(II: 50.5 µM, I: 1.54 µM)
